Values compiled from patent EP4671246A1.

# EXPERIMENTAL TARGET: UniProt Q96P20
# Sequence (Q96P20 whole entry): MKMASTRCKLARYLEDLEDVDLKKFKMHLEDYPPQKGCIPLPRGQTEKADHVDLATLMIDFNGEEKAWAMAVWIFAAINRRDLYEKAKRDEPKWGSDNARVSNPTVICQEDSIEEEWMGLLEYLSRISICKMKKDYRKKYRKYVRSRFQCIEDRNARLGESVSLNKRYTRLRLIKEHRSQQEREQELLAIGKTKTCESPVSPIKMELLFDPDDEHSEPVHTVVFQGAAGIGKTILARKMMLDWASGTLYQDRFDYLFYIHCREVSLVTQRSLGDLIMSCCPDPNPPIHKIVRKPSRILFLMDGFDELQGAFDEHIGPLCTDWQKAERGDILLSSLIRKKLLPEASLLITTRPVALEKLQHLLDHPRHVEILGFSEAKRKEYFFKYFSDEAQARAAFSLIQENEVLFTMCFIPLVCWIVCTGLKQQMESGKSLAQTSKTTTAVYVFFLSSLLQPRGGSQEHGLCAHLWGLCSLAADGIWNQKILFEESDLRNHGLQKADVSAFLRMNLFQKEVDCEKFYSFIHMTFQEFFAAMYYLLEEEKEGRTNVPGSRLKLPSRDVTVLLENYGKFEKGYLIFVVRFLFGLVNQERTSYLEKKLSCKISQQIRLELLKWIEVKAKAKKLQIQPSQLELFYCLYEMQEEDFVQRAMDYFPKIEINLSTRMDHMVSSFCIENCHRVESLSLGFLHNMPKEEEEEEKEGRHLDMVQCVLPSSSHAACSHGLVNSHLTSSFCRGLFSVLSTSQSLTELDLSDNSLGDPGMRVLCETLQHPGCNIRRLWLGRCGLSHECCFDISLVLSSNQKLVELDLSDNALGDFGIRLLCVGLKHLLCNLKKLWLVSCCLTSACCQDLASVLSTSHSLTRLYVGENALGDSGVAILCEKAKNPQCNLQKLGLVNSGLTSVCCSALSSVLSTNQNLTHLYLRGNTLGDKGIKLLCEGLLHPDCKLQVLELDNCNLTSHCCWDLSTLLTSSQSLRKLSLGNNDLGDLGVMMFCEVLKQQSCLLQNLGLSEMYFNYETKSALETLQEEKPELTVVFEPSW
# RUN DESCRIPTION: Evaluation of NLRP3 inflammasome inhibitory activity (inhibition of IL-1β production in THP1-Null cells)
# CONDITIONS: 0.5 µmol/L PMA overnight, 1 µg/mL Lipopolysaccharides 3 hours, Nigericin 7.5 µmol/L 1.5 hours, AlphaLISA Human IL-1β
// NB: equality with 700 nM counts as Not fulfilled; only IC50 strictly below is Fulfilled

Regarding COc1nc2nn(-c3c(C)cc(F)cc3C)cc2c(=O)[nH]1 , kindly confirm whether its IC50 is beneath 700 nM.
Not fulfilled

Determine if COc1nc2nn(-c3ccc(Br)cc3C(F)(F)F)cc2c(=O)[nH]1 shows IC50 strictly lower than 700 nM.
Fulfilled

Dear colleague, could you confirm whether IC50 of COc1nc2nn(-c3c(C)cc(C4CC4(F)F)cc3C)cc2c(=O)[nH]1 (racemic) falls below 700 nM? Thanks.
Fulfilled
